Target: human AXL Ig1 domain fused to human Fc (Homo sapiens, UniProt P30530)
Test: BLI
property-measured: binding result

{"binder": "tilvestamab scFv-osmY G233S (scFv, V domains shown) VH: EVQLVESGGGLVQPGGSLRLSCAASGYSFTDFYINWVRQAPGKGLEWVARIFPGGDNTYYNEKFKGRFTLSADTSKSTAYLQMNSLRAEDTAVYYCARRGLYYAMDYWGQGTLVTVSS VL: DIQMTQSPSSLSASVGDRVTITCRSSQSLVHSNGIPYLHWYQQKPGKAPKLLIYRVSNRFSGVPSRFSGSGSGTDFTLTISSLQPEDFATYYCSQSTHVPPTFGQGTKVEIK", "value-reported": "binds"}
{"binder": "tilvestamab scFv-osmY I35A (scFv, V domains shown) VH: EVQLVESGGGLVQPGGSLRLSCAASGYSFTDFYANWVRQAPGKGLEWVARIFPGGDNTYYNEKFKGRFTLSADTSKSTAYLQMNSLRAEDTAVYYCARRGLYYAMDYWGQGTLVTVSS VL: DIQMTQSPSSLSASVGDRVTITCRSSQSLVHSNGIPYLHWYQQKPGKAPKLLIYRVSNRFSGVPSRFSGSGSGTDFTLTISSLQPEDFATYYCSQGTHVPPTFGQGTKVEIK", "value-reported": "binds"}
{"binder": "tilvestamab scFv-osmY P238A (scFv, V domains shown) VH: EVQLVESGGGLVQPGGSLRLSCAASGYSFTDFYINWVRQAPGKGLEWVARIFPGGDNTYYNEKFKGRFTLSADTSKSTAYLQMNSLRAEDTAVYYCARRGLYYAMDYWGQGTLVTVSS VL: DIQMTQSPSSLSASVGDRVTITCRSSQSLVHSNGIPYLHWYQQKPGKAPKLLIYRVSNRFSGVPSRFSGSGSGTDFTLTISSLQPEDFATYYCSQGTHVPATFGQGTKVEIK", "value-reported": "binds"}
